# experimental-system: Proteasome subunit beta (Trypanosoma cruzi)
# procedure-details: Trypanosoma cruzi proteasome chymotrypsin-like activity (TcProtChymo) assay. Further: in the data most compounds retested in dose-response had high values.
# Assay type: functional
# Set-up: scale not given: direction of the effect not stated beside the values
# measurement-parameters: 9.37 µM
experimental-readout: Percent Effect (%)
One number for each entry, in %.

Worked examples follow.
compound	readout-number
CCCC1(CO)CCCN(c2ncccc2F)C1 (configuration not stated)	14.8
CC(OCC(F)(F)F)C(=O)NCc1ccc(-n2cncn2)nc1 (configuration not stated)	8.16
O=C([C@H]1CCCO1)N1CCc2ncnc(NC3CC3)c2CC1	12.4
CNC(=O)c1ccc(CN2CCC(N(C)Cc3noc(C)n3)C2)cc1 (configuration not stated)	15.9
CCNC(=O)N(C)Cc1ccc(SC)c(OC)c1	9.72
COCC(=O)N1CCCC1c1cc(Nc2nnc(C)s2)nc(C)n1 (configuration not stated)	-2.38
Cc1ccc(-c2ncc(C(=O)NCCS(N)(=O)=O)s2)c(C)c1	9.55
CCc1nc(NCC(=O)N2CCOCC2)c2c(n1)c(C)nn2CC	10.7

For every item in the list below, what is its measured Percent Effect?
1. COc1cccc(S(=O)(=O)CCN2CCCN(C(C)=O)CC2)c1
2. CC(=O)N1CCN(c2cc(C3CN(C)CCO3)nc(C)n2)CC1 (configuration not stated)
3. CCN1CCN(S(=O)(=O)c2cc(Cl)c(Cl)cc2C)CC1
4. CC(=O)c1cccc(NC(=O)Cn2cc(I)cn2)c1

1. 1.22
2. 14.8
3. -4.99
4. 9.3

----------
Exercise: for every item that follows, state its recorded Percent Effect.
# experimental-system: Ubiquitin-activating enzyme e1, putative (Leishmania donovani (strain BPK282A1)) (UniProt E9BSI1)
# Sequence (E9BSI1 as listed by the source): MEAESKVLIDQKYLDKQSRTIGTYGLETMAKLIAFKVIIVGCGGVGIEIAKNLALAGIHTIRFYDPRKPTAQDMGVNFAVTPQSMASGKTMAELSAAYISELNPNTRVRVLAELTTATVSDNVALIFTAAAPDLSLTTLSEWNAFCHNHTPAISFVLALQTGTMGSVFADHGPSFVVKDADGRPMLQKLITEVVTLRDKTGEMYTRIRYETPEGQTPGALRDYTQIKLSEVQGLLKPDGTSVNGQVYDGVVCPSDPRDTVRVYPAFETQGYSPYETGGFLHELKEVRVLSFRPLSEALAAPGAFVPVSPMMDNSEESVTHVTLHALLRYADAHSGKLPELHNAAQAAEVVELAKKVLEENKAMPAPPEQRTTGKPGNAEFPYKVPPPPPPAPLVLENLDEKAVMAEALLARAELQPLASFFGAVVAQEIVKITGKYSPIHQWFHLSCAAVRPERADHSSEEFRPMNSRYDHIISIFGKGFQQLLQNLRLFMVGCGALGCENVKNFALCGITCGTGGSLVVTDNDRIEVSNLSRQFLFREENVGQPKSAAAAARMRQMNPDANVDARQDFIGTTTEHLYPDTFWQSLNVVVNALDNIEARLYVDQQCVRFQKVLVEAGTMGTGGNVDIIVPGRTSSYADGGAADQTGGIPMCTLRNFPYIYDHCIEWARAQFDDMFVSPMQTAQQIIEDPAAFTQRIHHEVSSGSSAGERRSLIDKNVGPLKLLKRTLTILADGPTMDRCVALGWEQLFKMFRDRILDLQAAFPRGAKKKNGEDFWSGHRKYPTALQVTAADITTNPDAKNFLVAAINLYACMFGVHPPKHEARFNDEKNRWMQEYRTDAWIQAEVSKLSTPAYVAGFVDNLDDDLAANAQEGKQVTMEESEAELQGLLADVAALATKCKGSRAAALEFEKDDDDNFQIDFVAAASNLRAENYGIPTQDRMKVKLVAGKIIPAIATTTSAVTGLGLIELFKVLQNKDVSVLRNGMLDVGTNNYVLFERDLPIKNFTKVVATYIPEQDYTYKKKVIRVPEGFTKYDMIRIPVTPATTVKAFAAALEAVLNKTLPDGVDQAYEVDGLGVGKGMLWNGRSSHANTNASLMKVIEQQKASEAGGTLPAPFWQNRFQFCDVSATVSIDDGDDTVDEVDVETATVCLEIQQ
# procedure-details: Leishmania donovani Ubiquitin Activating Enzyme (LdE1)
# Assay type: functional
# Design: scale not given: direction of the effect not stated beside the values
# measurement-parameters: 30 µM
Entries with a potency or affinity are not part of this list.
One number for each entry, in %.

molecule	Percent Effect / %
O=C(C1=CCCC1)N1CCO[C@H]2[C@@H](OCC3CC3)CC[C@@H]21	18.7
CCn1ncc2c1CCCC2NCc1cc(Cl)c(OC)c(OC)c1 (stereo not drawn)	12.7
CCc1ccc(-n2c(=O)[nH]c3nc(N4CCSCC4)ncc3c2=O)cc1	21.1
CCCS(=O)(=O)NCC1CCOc2ccccc2C1 (stereo not drawn)	0
CCNS(=O)(=O)c1ccc(C)c(C(=O)N(C)Cc2ccco2)c1	-4.17
CCOCCC(=O)Nc1cccc(Oc2ccccn2)c1	0
Cn1cc(CN2CCCN(C(=O)c3ccc4c(c3)COC4)CC2)cn1	18.4
CN(Cc1cn2c(n1)CN(C(=O)CC1CC1)CC2)Cc1ccco1	2.67

Hi there! I need Percent Effect for each item below, if you can.
1. CS(=O)(=O)N1CCOCC2(CN(Cc3ccsc3)CCO2)C1 (stereo not drawn)
2. Cc1cccc(NC(=O)N2CCCn3cnc(CN4CCCC4)c3C2)c1

1: 5.48; 2: 8.11

Answer for every listed entry: what is its Percent Effect? The entries follow.
1. CCc1nc(C2CCCN(C(=O)c3cnn(CC)c3)C2)no1 (stereo not drawn)
2. COc1ncccc1C(=O)NCC(C)Oc1cccnc1 (stereo not drawn)
3. CCN(CC)c1ccc(C(=O)NCc2cccnc2-n2cncn2)cn1
4. CC(C(=O)NCc1ccnc(N2CCN(C)CC2)c1)n1cccn1 (stereo not drawn)
5. CCc1cnc(CN2CCCC2c2noc(C3CC3)n2)o1 (stereo not drawn)
6. CC(C)CS(=O)(=O)N1C[C@H]2C[C@H](C(=O)NCc3ccccc3)[C@@H](C1)O2

0
5.41
8.11
0
10.8
9.33

----------
Assign Percent Effect to each entry below.
# experimental-system: Arginase-2, mitochondrial (Homo sapiens) (UniProt P78540)
# Sequence (whole entry): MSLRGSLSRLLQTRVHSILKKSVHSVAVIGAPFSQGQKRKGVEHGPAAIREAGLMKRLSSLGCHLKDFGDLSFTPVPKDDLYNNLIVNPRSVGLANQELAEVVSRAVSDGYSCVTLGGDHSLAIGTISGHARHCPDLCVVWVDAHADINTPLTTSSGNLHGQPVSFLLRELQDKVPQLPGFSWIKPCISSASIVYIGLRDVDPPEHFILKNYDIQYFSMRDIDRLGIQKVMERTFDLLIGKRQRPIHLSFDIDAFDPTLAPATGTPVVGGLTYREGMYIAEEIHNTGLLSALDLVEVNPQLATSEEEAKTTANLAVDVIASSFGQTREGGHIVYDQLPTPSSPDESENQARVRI
# procedure-details: in vitro enzyme assay to detect the production of urea directly proportional to the activity of Arginase II; further: in the data most compounds retested in dose-response had high values
# Format: functional
# Parameters: scale not given: direction of the effect not stated beside the values
# measurement-parameters: 33.3 µM
Answers are plain numbers, in %.

compound	Percent Effect / %
CCCNC(=O)C(C)n1cc(Br)cn1 (configuration not stated)	-194
CN(C)CC1CN(Cc2cccc(C(=O)N(C)C)c2)CCO1 (configuration not stated)	3.56
Cc1ccc2c(c1)CN(C(=O)C1CCCCC1)C(CN(C)C)CO2 (configuration not stated)	-4.41
Cc1cc(CN2CCc3nn(C)c(=O)cc3C2)on1	4.86
Cn1cc(C(=O)NC2CCN(C(=O)NCCSC(F)(F)F)CC2)cn1	-0.215
CCN1CCC(c2nc3ccc(NC(C)C)cn3n2)CC1	-1.25

List the reported Percent Effect of each compound below.
1. Cc1cnn(CCC(=O)N2C[C@H]3CC[C@@H]2CN(CC(=O)N(C)C)C3)c1
2. Cc1nc(CN2C[C@@H]3CN(C(=O)C4CC4)C[C@@H]3C2=O)cs1
3. COc1cc(CNC2CCc3nc(C)nn3C2)cc2c1OCCO2 (configuration not stated)
4. CC(NCc1ccc(Cl)o1)c1nnc2n1CCCC2 (configuration not stated)
5. Cc1nccn1C1CCCN(C(=O)C2=NN(C)C(=O)CC2)C1 (configuration not stated)
6. CCn1nc(CC(C)C)cc1C(=O)NCCn1cccc1

1: 1.91; 2: 4.78; 3: 5.04; 4: 11.2; 5: -4.81; 6: -3.09

----------
# System: Trypanosoma cruzi
# procedure-details: Trypanosoma cruzi phosphomannomutase and mannose-1-phosphate guanylyltransferase assay
# Type: functional
# Design: scale not given: direction of the effect not stated beside the values
# measurement-parameters: 10 µM
Would you kindly list Percent Effect for each of these molecules?
Numbers only, in %.

Recorded Percent Effect, per entry:
molecule	experimental-system	uom	Percent Effect
Cc1ccc(CC(=O)N(C)CC2(O)CCN(c3ccccn3)C2)s1 (centres undefined)	Trypanosoma cruzi	%	0.198
CCc1nnc2n1CCN(C(=O)c1ccc3nc(C)c(C)nc3c1)C2	Trypanosoma cruzi	%	5.34
CCc1cnc(N2C[C@H]3C[C@H](C(=O)N(C)C)[C@@H](C2)O3)nc1	Trypanosoma cruzi	%	0.579

Provide the reported Percent Effect of each entry below, same order.
1. Cc1nc(-c2ccco2)ccc1C(=O)N1CCCC1Cn1cccn1 (centres undefined)
2. c1csc(-c2nc(CN3CCOC(Cn4cncn4)C3)cs2)c1 (centres undefined)
3. CSc1ccccc1CN1CCn2nc(CNC(C)=O)cc2C1

[-0.513, -3.83, 2.35]

Value sought for every listed molecule: Percent Effect.
1. Cc1nc(C2CCCN(C(=O)CCCn3cccn3)C2)no1 (centres undefined)
2. CC1CN(C)CCN1C(=O)c1ccn(-c2cccc(Cl)c2)n1 (centres undefined)
3. COc1c(C)cnc(CN2CCC(N(C)C(C)C(N)=O)CC2)c1C (centres undefined)
4. COc1ccc(NC(=O)NCC(O)c2ccc(F)cc2F)c(OC)c1 (centres undefined)
5. Cc1ccc(CNCc2nnc3n2CCCC3C(F)(F)F)o1 (centres undefined)
6. N#Cc1ccc(CN2CCN(C(=O)c3cc(C4CC4)[nH]n3)CC2)cc1
7. Cc1nn(C)c(N(C)C)c1CNCC(O)COc1ccc(F)cc1 (centres undefined)

4.49
3
-3.56
-4.41
-6.13
4.74
-1.57

Items follow; give Percent Effect for each.
1. CCOCCCNc1nc(O)cc(C2CC(=O)N(C)C2)n1 (centres undefined)
2. N#Cc1ccc(N2CCN(C(=O)c3cc(C4CC4)[nH]n3)CC2)c(F)c1
3. CC(NC(=O)NCCCc1n[nH]c(N)c1C#N)c1ccccc1 (centres undefined)
4. CN(C(=O)Cc1ccc2c(c1)OCCO2)C1CCCC1
5. O=C(NCc1cnc2n1CCN(CC1CC1)CC2)C1CCC1
6. CS(=O)(=O)c1ccc(CNCC2CCN(CCO)CC2)cc1
7. O=C(c1ccccn1)N1CCCC(c2nccn2Cc2ccncc2)C1 (centres undefined)

1. 3.95
2. 5.29
3. 3.68
4. -3.8
5. 4.79
6. -4.9
7. 2.94

----------
I'd appreciate it if you could supply Percent Effect values for the items below.
# experimental-system: Tyrosyl-tRNA synthetase, putative (Trypanosoma cruzi (strain CL Brener)) (UniProt Q4DSP6)
# Sequence (Q4DSP6 as listed by the source): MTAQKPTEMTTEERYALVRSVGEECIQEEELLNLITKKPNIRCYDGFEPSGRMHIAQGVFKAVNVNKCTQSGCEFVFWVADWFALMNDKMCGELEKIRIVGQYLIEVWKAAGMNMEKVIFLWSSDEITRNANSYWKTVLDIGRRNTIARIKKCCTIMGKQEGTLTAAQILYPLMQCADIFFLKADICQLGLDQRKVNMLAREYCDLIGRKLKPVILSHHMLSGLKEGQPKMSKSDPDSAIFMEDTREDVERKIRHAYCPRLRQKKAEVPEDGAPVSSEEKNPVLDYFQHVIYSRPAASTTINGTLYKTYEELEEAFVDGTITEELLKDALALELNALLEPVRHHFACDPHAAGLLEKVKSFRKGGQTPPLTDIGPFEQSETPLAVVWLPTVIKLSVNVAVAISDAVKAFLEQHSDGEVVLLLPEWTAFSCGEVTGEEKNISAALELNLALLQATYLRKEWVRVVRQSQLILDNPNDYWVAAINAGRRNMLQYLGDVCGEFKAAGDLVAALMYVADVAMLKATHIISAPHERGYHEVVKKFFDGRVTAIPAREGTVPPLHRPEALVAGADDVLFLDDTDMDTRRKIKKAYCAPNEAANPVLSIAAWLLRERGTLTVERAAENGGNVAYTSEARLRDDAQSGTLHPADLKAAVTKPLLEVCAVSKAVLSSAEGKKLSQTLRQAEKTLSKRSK
# procedure-details: Trypanosoma cruzi tyrosyl tRNA synthetase (TcYRS) _High Tyrosine SOP; further: in the data most compounds retested in dose-response had high values
# Format: functional
# Set-up: scale not given: direction of the effect not stated beside the values
# measurement-parameters: 30 µM
Answers without a unit are incomplete; give the number and then its unit.

Consider the reported Percent Effect for these molecules:
molecule	experimental-readout	result
O=C(NCCNc1cnccn1)C1CCN(C(=O)N2CCCC2)CC1	Percent Effect	-3.12%
Cc1nc(C2CCCN2CCCNS(C)(=O)=O)no1 (configuration not stated)	Percent Effect	4.41%

Could you report Percent Effect for every entry in the following list?
1. COc1ccc(C2CCCCCN2S(=O)(=O)N(C)C)cc1 (configuration not stated)
2. O=C(NCc1ccccn1)[C@@H]1CCO[C@@H]2CCN(Cc3ccoc3)C[C@H]21
3. CC(C)Cc1cc(C(=O)NCCc2ccc(S(C)(=O)=O)cc2)[nH]n1
4. Cc1nn(C)c(Cl)c1C1CCCN1CC(=O)NCc1ccccn1 (configuration not stated)
5. Cc1nc(CCNC(=O)N2CCC(Cc3cnn(C)c3)C2)cs1 (configuration not stated)

2.1%
4.32%
0%
4.17%
2.13%
